System: MCF10A
Test: one-nucleolus phenotype percent effect (relative to siNT 0% and siNOL11 100%); higher = more cells with one nucleolus (ribosome biogenesis inhibition)
Details: 20 nM; 72 h
OBSERVATION_TYPE: one-nucleolus phenotype percent effect (%)
Respond numerically; units are % and should not be typed.

Worked cases, answers included:
residue_codes="UUAUGGUUUGCCUGGGACUGAG [hsa-miR-584-5p]" observation_type="one-nucleolus phenotype percent effect" unit_text=% test_result=-25.7
residue_codes="UAGCACCAUCUGAAAUCGGUUA [hsa-miR-29a-3p]" observation_type="one-nucleolus phenotype percent effect" unit_text=% test_result=-24
residue_codes="CCACUUGGAUCUGAAGGCUGCCC [hsa-miR-3614-5p]" observation_type="one-nucleolus phenotype percent effect" unit_text=% test_result=36.9
residue_codes="AGAAGGGAAGAUGGUGAC [hsa-miR-7515]" observation_type="one-nucleolus phenotype percent effect" unit_text=% test_result=-2.73

Then there is this sequence:
Field one-nucleolus phenotype percent effect (system: MCF10A) for entry GGGGCUGUGAUUGACCAGCAGG [hsa-miR-4675] = 10.5
